Measured inhibition at 100 µM, listed per entry for reference.
biological target: OR5K1 (Homo sapiens); construct: expressed in transfected cells; host or cells: HEK293; assay: Luciferase reporter assay: suppression of the skatole response of OR5K1 expressed in HEK293 cells; type: cell-based; conditions: 4 h; test substance 100 μM mixed with 300 μM skatole, HEK293 cells expressing OR5K1; read-out: Inhibition rate 5K1
Sequence (Q8NHB7 whole entry): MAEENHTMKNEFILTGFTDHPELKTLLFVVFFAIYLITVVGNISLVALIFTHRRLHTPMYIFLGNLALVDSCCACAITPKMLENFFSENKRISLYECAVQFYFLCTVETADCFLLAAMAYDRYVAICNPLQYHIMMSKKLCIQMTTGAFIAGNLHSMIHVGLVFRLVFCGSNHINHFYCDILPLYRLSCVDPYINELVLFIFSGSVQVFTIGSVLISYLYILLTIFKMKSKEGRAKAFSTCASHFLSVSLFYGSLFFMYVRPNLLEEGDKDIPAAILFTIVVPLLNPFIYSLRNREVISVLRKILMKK

Worked cases, answers included:
- molecule: "C=CC(C)=CCC(C)(C)C(=NO)C(C)C"
  inhibition at 100 µM: "< 20%"
- molecule: "CC/C=C\\CC1=C(C)CCC1=O [cis-jasmone]"
  inhibition at 100 µM: "< 20%"
- molecule: "CC(C)CCCC(C)CCO (stereo not drawn) [tetrahydrogenol, 3,7-Dimethyl-1-octanol]"
  inhibition at 100 µM: "50 to 80%"
- molecule: "O=C1CCCCCCC=CCCCCCCC1"
  inhibition at 100 µM: "< 20%"
- molecule: "CC1C/C=C/CCCCCCCCCC(=O)C1 (stereo not drawn)"
  inhibition at 100 µM: "< 20%"
- molecule: "CC(C)c1cccc(C(C)CC=O)c1 (stereo not drawn) [Florhydral]"
  inhibition at 100 µM: "50 to 80%"
- molecule: "CC12CCC(C1)C(C)(C)C2O (stereo not drawn)"
  inhibition at 100 µM: "< 20%"
- molecule: "CC(C)(C)C1CCC(O)CC1 (stereo not drawn)"
  inhibition at 100 µM: "> 80%"

Now consider a different molecule.
Q: Using the record for CC(CCO)CCc1ccccc1 (stereo not drawn) , report its inhibition at 100 µM.
A: < 20%

---

target: OR5P3 (Homo sapiens); construct: expressed in transfected cells; host or cells: HEK293; assay: Luciferase reporter assay: suppression of the skatole response of OR5P3 expressed in HEK293 cells; assay type: cell-based; conditions: test substance 100 μM mixed with 300 μM skatole, HEK293 cells expressing OR5P3
Sequence (Q8WZ94 whole entry): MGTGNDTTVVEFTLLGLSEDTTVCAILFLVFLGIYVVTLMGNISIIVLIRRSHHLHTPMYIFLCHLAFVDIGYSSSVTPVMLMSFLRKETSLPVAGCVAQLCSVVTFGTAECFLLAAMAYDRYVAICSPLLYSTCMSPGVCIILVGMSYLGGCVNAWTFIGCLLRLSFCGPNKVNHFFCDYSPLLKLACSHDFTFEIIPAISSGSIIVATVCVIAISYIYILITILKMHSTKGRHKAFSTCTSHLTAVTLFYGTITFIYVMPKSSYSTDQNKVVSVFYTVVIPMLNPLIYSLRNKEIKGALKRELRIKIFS

- compound: "COC(C)(C)CCCC(C)CC=O (stereo not shown) [methoxycitronellal, 7-Methoxy-3,7-dimethyl-octanal]"
  subjectOfTest: "OR5P3 (Homo sapiens)"
  Inhibition rate 5P3: "C (C >20%)"
- compound: "CC(C)=CCCC(C)CC=O (stereo not shown) [citronellal, 3,7-Dimethyl-6-octenal]"
  subjectOfTest: "OR5P3 (Homo sapiens)"
  Inhibition rate 5P3: "C (C >20%)"

---

target: OR2W1 (Homo sapiens); construct: expressed in transfected cells; host or cells: HEK293; test: Luciferase reporter assay: suppression of the skatole response of OR2W1 expressed in HEK293 cells; assay type: cell-based; conditions: test substance 100 μM mixed with 300 μM skatole, HEK293 cells expressing OR2W1
Sequence (Q9Y3N9 whole entry): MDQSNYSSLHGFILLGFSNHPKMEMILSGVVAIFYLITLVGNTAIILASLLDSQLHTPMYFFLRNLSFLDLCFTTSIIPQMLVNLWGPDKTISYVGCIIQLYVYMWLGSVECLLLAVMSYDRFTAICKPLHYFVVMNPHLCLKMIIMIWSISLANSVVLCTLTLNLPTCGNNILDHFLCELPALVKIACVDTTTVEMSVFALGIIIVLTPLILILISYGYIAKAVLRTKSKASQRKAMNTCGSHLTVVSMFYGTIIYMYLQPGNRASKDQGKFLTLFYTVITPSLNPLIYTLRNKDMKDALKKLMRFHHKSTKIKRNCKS

- molecule: "CCCCCCOC(=O)c1ccccc1O [hexyl salicylate, n-Hexyl-o-hydroxy benzoate]"
  Inhibition rate 2W1: "B (B >50%)"
- molecule: "CC/C=C\\CCOC(=O)c1ccccc1O [cis-3-hexynlyl salicylate, 3(Z)-Hexenyl 2-hydroxy benzoate]"
  Inhibition rate 2W1: "B (B >50%)"

---

molecular target: OR5K1 (Homo sapiens); construct: expressed in transfected cells; host or cells: HEK293; assay: Luciferase reporter assay: suppression of the skatole response of OR5K1 expressed in HEK293 cells; assay type: cell-based; conditions: 4 h; test substance 100 μM mixed with 300 μM skatole, HEK293 cells expressing OR5K1; read-out: Inhibition rate 5K1
quantityMeasured: inhibition at 100 µM

Worked cases, answers included:
- compound: "CCCCCCCC1CCC(=O)O1 (stereo not drawn) [γ-undecalactone, 5-Heptyl dihydro-2(3H)-furanone]"
  inhibition at 100 µM: "50 to 80%"
- compound: "C=CCCC(=O)C1=CCCC(C)(C)C1 [Dinascone]"
  inhibition at 100 µM: "50 to 80%"
- compound: "CCC(O)COC1CCCCC1C(C)(C)C (stereo not drawn) [Ambercore, 1-(2-tert-Butylcyclohexyloxy)-2-butanol]"
  inhibition at 100 µM: "50 to 80%"
- compound: "CC(CC=O)CCCC(C)(C)O (stereo not drawn) [hydroxycitronellal, 7-Hydroxy-3,7-dimethyl-octanal]"
  inhibition at 100 µM: "< 20%"
- compound: "CC1(C)CCCC2=C1CC(C=O)CC2 (stereo not drawn) [Cyclemone A]"
  inhibition at 100 µM: "20 to 50%"

Q: Using the record for C=CC(C)(O)CCC=C(C)CCC=C(C)C (stereo not drawn) [nerolidol, 3,7,11-Trimethyl-1,6,10-dodecatrien-3-ol] , report its inhibition at 100 µM.
A: < 20%

Q: Using the record for CC(C)=CCCC(C)CC=O (stereo not drawn) [citronellal, 3,7-Dimethyl-6-octenal] , report its inhibition at 100 µM.
A: 20 to 50%

Q: Using the record for CC(C)=CCCC1=CCC(C=O)CC1 (stereo not drawn) [myrac aldehyde] , report its inhibition at 100 µM.
A: < 20%

Q: Using the record for CC(=O)C1=C(C)C2CC3(C1)C(C)CCC3C2(C)C (stereo not drawn) [acetylcedrene] , report its inhibition at 100 µM.
A: > 80%

Q: Using the record for COC(C)(C)CCCC(C)CC=O (stereo not drawn) [methoxycitronellal, 7-Methoxy-3,7-dimethyl-octanal] , report its inhibition at 100 µM.
A: 50 to 80%

Q: Using the record for CC1=CCC(C=CC(C)C(C)O)C1(C)C (stereo not drawn) [Ebanol] , report its inhibition at 100 µM.
A: > 80%

Cited source for all entries: patent US9249453B2
